Source of measurements: ChEMBL document CHEMBL3856258

# TEST: Cytotoxicity against CHL cells assessed as growth rate at 13.5 ug/ml preincubated for 6 hrs followed by 18 hrs incubation in fresh medium in absence of S9 fraction by MTT assay relative to control
# Format: toxicity, cell-based, Cricetulus griseus
# EXPERIMENTAL SETUP: chinese hamster, read-out: Activity
READOUT TYPE: viability at 18 h, 13.5 ug/ml

Sample COP(=O)(CCC(N)C(=O)O)Oc1cccc(CC(=O)O)c1 (stereo unspecified) — what was its viability at 18 h, 13.5 ug/ml? 100%

###

# TEST: Cytotoxicity against CHL cells assessed as growth rate at 84.5 ug/ml preincubated for 6 hrs followed by 18 hrs incubation in fresh medium in presence of S9 fraction by MTT assay relative to control
# Type: toxicity, cell-based, Cricetulus griseus
# EXPERIMENTAL SETUP: chinese hamster, read-out: Activity
READOUT TYPE: viability at 18 h, 84.5 ug/ml

Sample COP(=O)(CCC(N)C(=O)O)Oc1cccc(CC(=O)O)c1 (stereo unspecified) — what was its viability at 18 h, 84.5 ug/ml? 100%
